biological target: human GABA A α1β2/3γ2 (Homo sapiens, UniProt P14867+P18507); assay: [3H]flumazenil competition binding, HEK293 cells expressing human α1β2/3γ2; parameters: expressed in transfected cells; host or cells: HEK293; settings: binding selectivity ratio
Class (required): determined from hKi α1/hKi α5; valid ranges are lower bin = under 20, middle bin = from 20 up to 100, upper bin = 100 and over

Here are 3 molecules together with their reported answers.
Cc1onc(-c2ccc(F)cc2)c1COc1ccc(C(=O)N2CCS(=O)(=O)CC2)cn1    upper bin
Cc1onc(-c2ccc(F)cn2)c1COc1ccc(C(=O)N2CCS(=O)(=O)CC2)cn1    upper bin
Cc1nc2n(n1)Cc1c(Cl)ncn1-c1ccc(C#N)cc1-2    middle bin

Kindly review the next molecule as well.
-- ask Using the reported hKi α1/hKi α5, which band applies to Cc1onc(-c2ccc(Cl)cn2)c1COc1ccc(C(=O)N2CCSCC2)cn1 ?
-- reply middle bin
